Target: T1, IFN-αJ1 (human, UniProt P01567 24-189)
T1 construct: also called IFN-α7; alpha J1
Test: ProteOn, one antigen concentration
pKd: −log10 of the molar value.
# reported pKd; entries follow

BINDER	pKd
IFWM3337 (antibody, V domains shown, VH IFWH591, VL IFWL1087; converted mAb; also called IFWB3072) VH: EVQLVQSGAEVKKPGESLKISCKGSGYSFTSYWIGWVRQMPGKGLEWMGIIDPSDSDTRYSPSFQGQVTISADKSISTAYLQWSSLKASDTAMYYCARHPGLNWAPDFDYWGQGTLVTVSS VL: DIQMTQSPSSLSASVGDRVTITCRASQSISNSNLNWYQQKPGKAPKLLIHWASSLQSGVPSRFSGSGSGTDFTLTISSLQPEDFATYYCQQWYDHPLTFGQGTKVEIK	10.15
IFWM3319 (antibody, V domains shown, VH IFWH591, VL IFWL1041; converted mAb; also called IFWB3054) VH: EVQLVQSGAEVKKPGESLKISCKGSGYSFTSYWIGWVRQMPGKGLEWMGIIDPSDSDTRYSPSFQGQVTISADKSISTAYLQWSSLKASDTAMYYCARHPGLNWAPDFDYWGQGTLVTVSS VL: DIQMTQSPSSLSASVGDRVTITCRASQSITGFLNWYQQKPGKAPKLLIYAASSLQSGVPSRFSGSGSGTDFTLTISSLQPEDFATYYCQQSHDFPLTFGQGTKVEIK	9.82
IFWM3320 (antibody, V domains shown, VH IFWH591, VL IFWL1047; converted mAb; also called IFWB3055) VH: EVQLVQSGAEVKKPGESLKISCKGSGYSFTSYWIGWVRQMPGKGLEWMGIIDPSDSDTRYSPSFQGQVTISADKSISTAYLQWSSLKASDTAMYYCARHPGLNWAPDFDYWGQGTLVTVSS VL: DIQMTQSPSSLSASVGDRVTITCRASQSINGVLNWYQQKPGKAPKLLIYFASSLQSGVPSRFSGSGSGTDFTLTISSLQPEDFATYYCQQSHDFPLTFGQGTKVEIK	10.21
IFWM3308 (antibody, V domains shown, VH IFWH591, VL IFWL1004; converted mAb; also called IFWB3043) VH: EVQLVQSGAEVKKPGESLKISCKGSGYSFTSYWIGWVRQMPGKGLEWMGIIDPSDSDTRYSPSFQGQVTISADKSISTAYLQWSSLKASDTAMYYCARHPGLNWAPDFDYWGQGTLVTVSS VL: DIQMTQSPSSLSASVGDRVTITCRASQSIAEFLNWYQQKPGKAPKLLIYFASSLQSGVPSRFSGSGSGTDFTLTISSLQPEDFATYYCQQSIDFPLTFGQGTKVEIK	9.69
IFWM3348 (antibody, V domains shown, VH IFWH624, VL IFWL1006; converted mAb; also called IFWB3083) VH: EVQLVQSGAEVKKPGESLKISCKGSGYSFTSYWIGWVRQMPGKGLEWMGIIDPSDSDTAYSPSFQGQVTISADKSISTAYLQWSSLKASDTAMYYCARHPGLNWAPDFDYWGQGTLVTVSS VL: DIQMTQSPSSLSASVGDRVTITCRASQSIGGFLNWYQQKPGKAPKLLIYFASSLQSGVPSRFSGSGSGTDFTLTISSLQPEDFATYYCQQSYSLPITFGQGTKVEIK	9.79
IFWM3349 (antibody, V domains shown, VH IFWH624, VL IFWL1007; converted mAb; also called IFWB3084) VH: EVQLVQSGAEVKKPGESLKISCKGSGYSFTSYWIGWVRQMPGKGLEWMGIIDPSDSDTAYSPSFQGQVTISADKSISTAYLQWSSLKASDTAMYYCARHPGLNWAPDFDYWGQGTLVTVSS VL: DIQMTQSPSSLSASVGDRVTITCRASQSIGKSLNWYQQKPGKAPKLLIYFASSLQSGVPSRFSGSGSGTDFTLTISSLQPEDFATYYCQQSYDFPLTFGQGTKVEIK	9.91
IFWM3335 (antibody, V domains shown, VH IFWH591, VL IFWL1084; converted mAb; also called IFWB3070) VH: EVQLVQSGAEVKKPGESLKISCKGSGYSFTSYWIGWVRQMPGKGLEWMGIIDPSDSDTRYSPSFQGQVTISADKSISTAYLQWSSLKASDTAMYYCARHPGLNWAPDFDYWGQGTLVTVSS VL: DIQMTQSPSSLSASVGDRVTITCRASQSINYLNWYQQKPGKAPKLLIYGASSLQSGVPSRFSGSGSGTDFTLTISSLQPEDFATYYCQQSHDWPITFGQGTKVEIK	9.61
IFWM3321 (antibody, V domains shown, VH IFWH591, VL IFWL1048; converted mAb; also called IFWB3056) VH: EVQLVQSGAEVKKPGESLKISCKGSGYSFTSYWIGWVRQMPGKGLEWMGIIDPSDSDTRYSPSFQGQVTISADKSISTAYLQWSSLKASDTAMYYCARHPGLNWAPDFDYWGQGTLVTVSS VL: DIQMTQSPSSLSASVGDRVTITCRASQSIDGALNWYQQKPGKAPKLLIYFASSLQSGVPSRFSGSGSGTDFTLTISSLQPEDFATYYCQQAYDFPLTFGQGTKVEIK	10.10
IFWM3292 (antibody, V domains shown, VH IFWH624, VL IFWL999; converted mAb; also called IFWB3027) VH: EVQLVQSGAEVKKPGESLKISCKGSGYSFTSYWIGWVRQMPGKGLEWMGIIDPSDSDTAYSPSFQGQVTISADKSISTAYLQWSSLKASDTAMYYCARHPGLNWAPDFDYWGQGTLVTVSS VL: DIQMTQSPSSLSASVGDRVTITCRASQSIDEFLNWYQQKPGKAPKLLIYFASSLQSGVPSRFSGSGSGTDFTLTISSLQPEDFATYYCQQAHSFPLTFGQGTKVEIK	9.53
IFWM3332 (antibody, V domains shown, VH IFWH591, VL IFWL1074; converted mAb; also called IFWB3067) VH: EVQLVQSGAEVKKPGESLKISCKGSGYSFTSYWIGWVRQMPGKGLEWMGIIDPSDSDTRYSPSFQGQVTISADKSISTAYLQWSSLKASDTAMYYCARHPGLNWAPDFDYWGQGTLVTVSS VL: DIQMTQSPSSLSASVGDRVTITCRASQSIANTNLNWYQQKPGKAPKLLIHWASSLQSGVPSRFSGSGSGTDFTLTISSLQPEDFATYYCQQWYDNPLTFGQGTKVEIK	9.87

Source: patent US20150368338A1
